Assignment: determine reported IC50 for the given molecules.
experimental.target: recombinant His-tag Wip1(2-420) protein (amino acids #2-420) (Homo sapiens (Human))
Sequence (O15297 2-420): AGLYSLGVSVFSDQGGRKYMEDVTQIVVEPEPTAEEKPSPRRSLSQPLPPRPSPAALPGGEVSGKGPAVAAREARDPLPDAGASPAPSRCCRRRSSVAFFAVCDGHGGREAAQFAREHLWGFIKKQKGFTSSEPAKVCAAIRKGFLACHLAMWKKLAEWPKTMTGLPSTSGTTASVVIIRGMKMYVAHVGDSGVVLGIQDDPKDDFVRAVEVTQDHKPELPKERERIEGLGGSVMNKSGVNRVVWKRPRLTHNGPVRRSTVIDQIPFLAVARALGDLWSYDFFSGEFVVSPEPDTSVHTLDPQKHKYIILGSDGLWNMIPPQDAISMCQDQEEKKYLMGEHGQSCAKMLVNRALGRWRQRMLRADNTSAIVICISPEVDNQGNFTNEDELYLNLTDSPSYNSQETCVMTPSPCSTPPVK
protocol.summary: Wip1(2-420) phosphatase enzyme FDP assay
experimental.setup: fluorescein diphosphate (FDP) substrate, RT 2 hours, fluorescence Ex485/Em535; read-out: WIP1 (Truncated 2-420) FDP Assay: IC50
Please give a number only; it is taken to be in nM.

Fetch value of IC50 on recombinant His-tag Wip1(2-420) protein (amino acids #2-420) (Homo sapiens (Human)) for "Cc1ncc(Cl)cc1N[C@@H](C)c1ccc(C(=O)N[C@@H](CC2CCCC2)C(=O)Nc2ccc3ncccc3c2)s1" .
4

Fill in IC50 for "Cc1ncc(Cl)cc1N[C@@H](C)c1ccc(C(=O)N[C@@H](CC2CCCC2)C(=O)NC23CC(C(N)=O)(C2)C3)s1" tested with recombinant His-tag Wip1(2-420) protein (amino acids #2-420) (Homo sapiens (Human)).
7

Look up recombinant His-tag Wip1(2-420) protein (amino acids #2-420) (Homo sapiens (Human)) data: IC50 of "Cc1ncc(Cl)cc1N[C@H](C)c1ccc(C(=O)N[C@@H](CC2CCCC2)C(=O)N[C@H]2CC2(F)F)s1" , then report it.
109

Report its IC50 with recombinant His-tag Wip1(2-420) protein (amino acids #2-420) (Homo sapiens (Human)) as the test system: "Cc1ncc(Cl)cc1N[C@@H](C)c1ccc(C(=O)N[C@H](CC2CCCC2)C(=O)Nc2ccnc(Cl)c2)s1"
2500

Provide recombinant His-tag Wip1(2-420) protein (amino acids #2-420) (Homo sapiens (Human)) IC50 reading for "Cc1ncc(Cl)cc1N[C@@H](C)c1ccc(C(=O)N[C@@H](CCC(C)(C)C)C(=O)NC2CC2)s1" .
11

# return IC50 for "COc1ccc(NC(=O)[C@H](CC2CCCC2)NC(=O)c2ccc([C@H](C)Nc3cc(Cl)cnc3C)s2)cn1" , test system: recombinant His-tag Wip1(2-420) protein (amino acids #2-420) (Homo sapiens (Human))
5

# lookup: recombinant His-tag Wip1(2-420) protein (amino acids #2-420) (Homo sapiens (Human)) IC50, key = "C[C@@H](Nc1cccc(Cl)c1)c1ncc(C(=O)N[C@@H](CC2CCCC2)C(=O)NC2CC2)s1"
59

---

experimental.target: recombinant His-tag Wip1(2-420) protein (amino acids #2-420) (Homo sapiens (Human))
protocol.summary: Wip1(2-420) phosphatase enzyme FDP assay
experimental.setup: fluorescein diphosphate (FDP) substrate, RT 2 hours, fluorescence Ex485/Em535; read-out: WIP1 (Truncated 2-420) FDP Assay: IC50
hey, just use True if measured IC50 is less than 20 nM, otherwise False

Bench note: check whether Cc1ncc(Cl)cc1N[C@@H](C)c1ccc(C(=O)N[C@@H](CC2CCCC2)C(=O)NC2CCc3ncccc3C2)s1 (stereo partly shown) [Compound 169] shows IC50 below 20 nM
True

I'd appreciate it if you could check whether CCn1cc(NC(=O)[C@H](CC2CCCC2)NC(=O)c2ccc([C@H](C)Nc3cc(Cl)cnc3C)s2)cn1 [Compound 162] has IC50 smaller than 20 nM.
True

Dear reviewer, please state whether Cc1cc(NC(=O)[C@H](CC2CCCC2)NC(=O)c2cnc([C@@H](C)Nc3cccc(Cl)c3)s2)cc(C)n1 [Compound 118] has IC50 strictly beneath 20 nM.
False

Input Cc1cc(NC(=O)[C@H](CC2CCCC2)NC(=O)c2cnc([C@H](C)Nc3cccc(Cl)c3)s2)cc(C)n1 [Compound 128] ; condition: IC50 strictly below 20 nM. Does it hold?
False

Hello, is IC50 of the following molecule strictly smaller than 20 nM? Cc1ncc(Cl)cc1N[C@@H](Cn1cccn1)c1ccc(C(=O)N[C@@H](CC2CCCC2)C(=O)NC2CC2)s1 [Compound 166]
True

Input Cc1ncc(Cl)cc1NC(CC1CCN(C)CC1)c1ccc(C(=O)N[C@@H](CC2CCCC2)C(=O)NC2CC2)s1 (stereo partly shown) [Compound 131] ; condition: IC50 strictly below 20 nM. Does it hold?
False

I wonder whether Cc1ncc(Cl)cc1N[C@@H](c1ccc(C(=O)N[C@@H](CC2CCCC2)C(=O)NC2CC2)s1)C(F)(F)F [Compound 184] has IC50 below 20 nM. Can you tell?
False

Determine if Cc1ncc(Cl)cc1N[C@H](c1ccc(C(=O)N[C@@H](CC2CCCC2)C(=O)NC23CC(C2)C3)s1)C(F)(F)F [Compound 187] shows IC50 strictly lower than 20 nM.
False

Strictly below 20 nM in IC50? Cc1ncc(Cl)cc1N[C@@H](C)c1ccc(C(=O)N[C@@H](CC2CCCC2)C(=O)NC2CC3(CCC3)C2)s1 [Compound 104]
True

State whether 20 nM exceeds IC50 recorded for C[C@@H](c1ccc(C(=O)N[C@@H](CC2CCCC2)C(=O)NC2CC2)s1)N1CCN(C)c2ccc(Cl)cc21 [Compound 239] .
False

Please let me know if Cc1ncc(Cl)cc1N[C@@H](C)c1ccc(C(=O)N[C@@H](CC2CCCC2)C(=O)NC2CC2(F)F)s1 (stereo partly shown) [Compound 14] shows IC50 below 20 nM.
True

I'd appreciate it if you could check whether Cc1ncc(Cl)cc1NC(C)(C)c1ccc(C(=O)N[C@@H](CC2CCCC2)C(=O)NC23CC(C2)C3)s1 [Compound 54] has IC50 smaller than 20 nM.
True

Does the reported IC50 of COc1ccc(-c2ncc(Cl)cc2N[C@H](C)c2ccc(C(=O)N[C@@H](CC3CCCC3)C(=O)NC3CC3)s2)cc1 [Compound 238] stay below 20 nM?
False

Lab log: compare recorded IC50 with 20 nM; is it strictly lower for CNC(=O)[C@H](CC1CCCC1)NC(=O)c1ccc([C@H](C)Nc2cc(Cl)cnc2C)s1 [Compound 74] ?
False

In the record for CN(Cc1ncc(C(=O)N[C@@H](CC2CCCCC2)C(=O)N[C@H]2CC[C@H](N(C)C)CC2)s1)c1cncc(Cl)c1 [Compound 303] , is IC50 less than 20 nM?
False

IC50 under 20 nM? Item: Cc1ncc(Cl)cc1NC(C)c1ncc(C(=O)N[C@@H](CC2CCCC2)C(=O)NC2CC2)s1 (stereo partly shown) [Compound 280]
False

Please check: IC50 for C[C@@H](Nc1cc(Cl)cnc1-c1cccc(Cl)c1)c1ccc(C(=O)N[C@@H](CC2CCCC2)C(=O)NC2CC2)s1 [Compound 230] , strictly under 20 nM or not?
False

Does the reported IC50 of the following molecule sit strictly below 20 nM? CNC(=O)[C@H](CC1CCCCC1)NC(=O)c1ccc([C@H](C)Nc2cc(Cl)cnc2C)s1 [Compound 265]
True

Hello, is IC50 of the following molecule strictly smaller than 20 nM? COC(=O)CNC(=O)[C@H](CC1CCCC1)NC(=O)c1ccc([C@H](C)Nc2cc(Cl)cnc2C)s1 [Compound 91]
True

Dear reviewer, please state whether Cc1ncc(Cl)cc1N[C@@H](C)c1ccc(C(=O)N[C@H](CC23CCC(CC2)CC3)C(=O)NC2CC2)s1 [Compound 255] has IC50 strictly beneath 20 nM.
False

Is it true that IC50 reported for Cc1ncc(Cl)cc1N[C@@H](C)c1ccc(C(=O)N[C@@H](CC2CCCC2)C(=O)NC23CC(C)(C2)C3)s1 [Compound 17] is less than 20 nM?
True

Hello, I'm reviewing records and need to know if IC50 of Cc1ncc(Cl)cc1N[C@@H](C)c1ccc(C(=O)N[C@@H](CC2CCCC2)C(=O)NC23CC(O)(C2)C3)s1 [Compound 20] is below 20 nM. Could you check?
True

Problem: For the molecule COC[C@@H](Nc1cc(Cl)cnc1C)c1ccc(C(=O)N[C@@H](CC2CCCC2)C(=O)NC2CC2)s1 [Compound 158] , is IC50 under 20 nM?
False

Here's an entry: Cc1ncc(Cl)cc1N[C@@H](C)c1ccc(C(=O)N[C@H](C(=O)NC2CC2)C(C)(C)C)s1 [Compound 235] . Is its IC50 below 20 nM?
False

Problem: For the molecule C[C@H](c1ccc(C(=O)N[C@@H](CC2CCCC2)C(=O)NC2CC2)s1)N1CCN(C)c2ccc(Cl)cc21 [Compound 240] , is IC50 under 20 nM?
False

# strict comparison: is reported IC50 < 20 nM? input = COc1ncc(Cl)cc1N[C@H](C)c1ccc(C(=O)N[C@@H](CC2CCCC2)C(=O)NC2CC2)s1 [Compound 35]
False

Is the reported IC50 for Cc1ncc(Cl)cc1N[C@@H](C)c1ccc(C(=O)N[C@@H](CC2CCCC2)C(=O)NC23CC(C2)C3)s1 [Compound 11] strictly below 20 nM?
True
